Task for the reader: assign each of the following compounds its reported Change in blood pressure after 3 hrs. from administration.
# Test system: spontaneously hypertensive rats (SHR)
# METHOD SUMMARY: Antihypertensive effect, oral administration to spontaneously hypertensive rats (mean blood pressure and heart rate)
# Format: in vivo, rat
# MEASUREMENT CONDITIONS: Table 1; SHR, p.o., 10 mg./kg., 3 hrs.
Provide the reading as a plain figure in mmHg.

Change in blood pressure after 3 hrs. from administration reading for COc1ccc(C=CC(=O)N2CCN(c3nc(N)c4cc(OC)c(OC)cc4n3)CC2)cc1 [Compound No. 8] : -25

// recorded Change in blood pressure after 3 hrs. from administration for COc1cc2nc(N3CCN(C(=O)C=Cc4cccc(C)c4)CC3)nc(N)c2cc1OC [compound 3] : -35

Per the record, COc1cc2nc(N3CCN(C(=O)C=Cc4ccc(OC)c(OC)c4OC)CC3)nc(N)c2cc1OC [compound 14] has Change in blood pressure after 3 hrs. from administration of -22

// Change in blood pressure after 3 hrs. from administration lookup, compound = C=CCOc1ccc(C=CC(=O)N2CCN(c3nc(N)c4cc(OC)c(OC)cc4n3)CC2)cc1 [compound 17] , result: -18

// field: Change in blood pressure after 3 hrs. from administration; key: COc1cc2nc(N3CCN(C(=O)C=Cc4ccccc4)CC3)nc(N)c2cc1OC [Compound No. 1] ; value = -53

Reported Change in blood pressure after 3 hrs. from administration for COc1cc2nc(N3CCN(C(=O)C=Cc4ccc5c(c4)OCO5)CC3)nc(N)c2cc1OC [Compound No. 16] was -13
